Target: pooled human IgG
proteins and their reported Enzyme Activity Endpoint Assay (purified): scIgG
State the answer as a number, implicitly in ng/µL.

What does the data say about its Enzyme Activity Endpoint Assay (purified): scIgG? Entry: PRT-143 (protein) MANQEIRYSEVTPYHITSVWTKGVTPPANFTQGEDVFHAPYVANQGWYDITKTFNGKDDLLCGAATAGNMLHWWFDQNKDQIKRYLEEHPEKQKINFNGEQMFDVKEAIDTKNHQLDSKLFEYFKEKAFPYLSTKHLGVFPDHVIDMFINGYRLSLTNHGPTPVKEGSKDPRGGIFDAVFTRGDQSKLLTSRHDFKEKTLNEISQLIKQELTEGKALGLSHTYANVRINHVINLWGADFDAEGNLEAIYVTDSDSNASIGMKKYFVGVNSAGKVAISAKEIKEDNIGAQVLGLFTLSTGQDSWNQTN 0

---
What does the data say about its Enzyme Activity Endpoint Assay (purified): scIgG? Entry: PRT-627 (protein) MQITSVWTKGVTPLTPEQFRYNNEDVIHAPYLAHQGWYDITKAFDGKDNLLCGAATAGNMLHWWFDQNKEEIEAYLKKYGETQKIIFNNQELFDLKAAIDTKDSQTNSQLFNYFRDKAFPNLSARQLGVMPDLVLDMFINGYYLNVFKTQSTDVNRPYQDKDKRGGIFDAVFTRGDQTTLLTARHDLKNKGLNDISTIIKQELTEGRALALSHTYANVSISHVINLWGADFNAEGNLEAIYVTDSDANASIGMKKYFVGINAHGHVAISAKKIEGENIGAQVLGLFTLSSGKDIWQKLSLEHHHHHH 187
